Assay: in vitro
Details: human, erythrocyte
Reported Endpoint: hemolysis at 1 h

Incoming: Query hemolysis at 1 h for O=C(O)c1cn(C2CC2)c2cc(N3CCNCC3)c(F)cc2c1=O [CIPROFLOXACIN]
Outgoing: ≤ 1%

---

Tested on: Pseudomonas aeruginosa
Assay: microbe, parasite or virus in culture
Format: functional
Conditions: 9027
Entries whose MIC is below 3 µg/mL take t; entries at or above 3 µg/mL take f.

Incoming: Please let me know if C[C@@H]1CN(c2c(F)c(N)c3c(=O)c(C(=O)O)cn(C4CC4)c3c2F)C[C@H](C)N1 shows MIC below 3 µg/mL.
Outgoing: t

Continuing:
Incoming: Please let me know if CCn1cc(C(=O)O)c(=O)c2cc(F)c(N3CCNC(C)C3)c(F)c21 (stereo not drawn) shows MIC below 3 µg/mL.
Outgoing: f

Incoming: Please let me know if CC1CN(c2c(F)c(N)c3c(=O)c(C(=O)O)cn(C4CC4)c3c2F)CC(C)N1.O=[N+]([O-])c1c(Cl)cc2c(no[n+]2[O-])c1O (stereo not drawn) shows MIC below 3 µg/mL.
Outgoing: f

Incoming: Please let me know if O=C(O)c1cn(C2CC2)c2cc(N3CCNCC3)c(F)cc2c1=O shows MIC below 3 µg/mL.
Outgoing: t

Incoming: Please let me know if O=C(O)c1cn(C2CC2)c2cc(N3CCNCC3)c(F)cc2c1=O.O=[N+]([O-])c1c(Cl)cc2c(no[n+]2[O-])c1O shows MIC below 3 µg/mL.
Outgoing: f

Incoming: Please let me know if CCn1cc(C(=O)O)c(=O)c2cc(F)c(N3CCNCC3)cc21 shows MIC below 3 µg/mL.
Outgoing: f

Incoming: Please let me know if CCn1cc(C(=O)O)c(=O)c2cc(F)c(N3CCNC(C)C3)c(F)c21.O=[N+]([O-])c1c(Cl)cc2c(no[n+]2[O-])c1O (stereo not drawn) shows MIC below 3 µg/mL.
Outgoing: f

Incoming: Please let me know if CCn1cc(C(=O)O)c(=O)c2cc(F)c(N3CCNCC3)cc21.O=[N+]([O-])c1c(Cl)cc2c(no[n+]2[O-])c1O shows MIC below 3 µg/mL.
Outgoing: f

---

Tested on: Pseudomonas aeruginosa
Test: microbe, parasite or virus in culture
Assay type: functional
Conditions: Pseudomonas aeruginosa, 9027, 4 h
log10 MBC overview
# log10 transformed; quantity=MBC; unit=µg/mL

Incoming: Query log10 MBC for C[C@@H]1CN(c2c(F)c(N)c3c(=O)c(C(=O)O)cn(C4CC4)c3c2F)C[C@H](C)N1
Outgoing: 0.49

Incoming: Query log10 MBC for CCn1cc(C(=O)O)c(=O)c2cc(F)c(N3CCNC(C)C3)c(F)c21.O=[N+]([O-])c1c(Cl)cc2c(no[n+]2[O-])c1O (stereo not drawn)
Outgoing: 1.10

Incoming: Query log10 MBC for CC1CN(c2c(F)c(N)c3c(=O)c(C(=O)O)cn(C4CC4)c3c2F)CC(C)N1.O=[N+]([O-])c1c(Cl)cc2c(no[n+]2[O-])c1O (stereo not drawn)
Outgoing: 0.80

Incoming: Query log10 MBC for CCn1cc(C(=O)O)c(=O)c2cc(F)c(N3CCNC(C)C3)c(F)c21 (stereo not drawn)
Outgoing: 1.10

Incoming: Query log10 MBC for CCn1cc(C(=O)O)c(=O)c2cc(F)c(N3CCNCC3)cc21
Outgoing: 1.40

Incoming: Query log10 MBC for O=C(O)c1cn(C2CC2)c2cc(N3CCNCC3)c(F)cc2c1=O.O=[N+]([O-])c1c(Cl)cc2c(no[n+]2[O-])c1O
Outgoing: 1.50

Continuing:
Incoming: Query log10 MBC for O=C(O)c1cn(C2CC2)c2cc(N3CCNCC3)c(F)cc2c1=O
Outgoing: 0.49

Ref: ChEMBL document CHEMBL3797086
